- procedure_summary: Viability qHTS for spleen associated tyrosine kinase inhibitor (SYKi) naive MV4-11 cells (AID 1963823); also: nearly all actives have a fitted effect of over 40% in size
- assay_conditions: MV4-11 AML viability, CellTiter-Glo luminescence, 72 h; series mostly up to 45 µM
Records with an inconclusive call do not appear. Activity calls are given as the source filed them. Calls follow the shape of the dose curve; as a rule, active = well fitted cell-killing curve with a large enough effect; inconclusive = small, poorly fitted or top-dose-only effect, or effect the other way; inactive = no such curve, though single readings can be large or run the other way.
Please provide measured viability (% of control) for the entries that follow.

Sample records with viability (% of control):
molecule: CC1OC(OC2C(C)OC(OC3C(OC(=O)C45CCC(C)(C)CC4C4=CCC6C7(C)CCC(OC8OC(C(=O)O)C(O)C(O)C8OC8OC(CO)C(O)C(OC9OC(C)C(O)C(O)C9O)C8O)C(C)(CO)C7CCC6(C)C4(C)CC5)OC(CO)C(O)C3O)C(O)C2O)C(O)C(O)C1O (stereo not given)
viability (% of control): 89.1% [at 9.25 µM] (inactive)

molecule: COC(=O)CC[C@H](NC(=O)[C@H](CC(C)C)NC(=O)OCc1ccccc1)C(=O)N[C@@H](Cc1cnc[nH]1)C(=O)N[C@@H](CC(=O)OC)C(=O)CF
viability (% of control): 80.3% [at 9.25 µM] (inactive)

Dear colleague, could you please provide viability (% of control) for the molecules listed below?
1. CC(=O)OC[C@@]12[C@H](O)C[C@]3(C)C(=CCC4[C@@]5(C)CC[C@H](O[C@@H]6O[C@H](C(=O)O)[C@@H](O[C@@H]7O[C@H](CO)[C@@H](O)[C@H](O)[C@H]7O)[C@H](O)[C@H]6O[C@@H]6O[C@H](CO)[C@@H](O)[C@H](O)[C@H]6O)[C@](C)(CO)C5CC[C@]43C)[C@@H]1CC(C)(C)[C@@H](OC(C)=O)[C@@H]2O (stereo not given in full)
2. C[C@@H]1O[C@@H](O[C@@H]2[C@@H](O)[C@H](O[C@H]3[C@H](O[C@H]4CC[C@@]5(C)C(CC[C@]6(C)C5CC=C5[C@@H]7CC(C)(C)CC[C@]7(C(=O)O[C@@H]7O[C@H](CO)[C@@H](O)[C@H](O)[C@H]7O[C@@H]7O[C@@H](C)[C@H](O[C@@H]8O[C@@H](C)[C@H](O)[C@@H](O)[C@H]8O)[C@@H](O)[C@H]7O)CC[C@]56C)[C@@]4(C)CO)O[C@H](C(=O)O)[C@@H](O)[C@@H]3O)O[C@H](CO)[C@H]2O)[C@H](O)[C@H](O)[C@H]1O (stereo not given in full)

1. 96.3% [at 9.25 µM] (inactive)
2. 94% [at 9.25 µM] (inactive)

* * *

- procedure_summary: Viability qHTS for spleen associated tyrosine kinase inhibitor (SYKi) drug resistant MV4-11 cells (AID 1963824); also: nearly all actives have a fitted effect of over 35% in size
- assay_conditions: SYKi-resistant MV4-11 viability, CellTiter-Glo, 72 h; series mostly up to 45 µM
Results filed as inconclusive are left out. Activity calls are given as the source filed them. Calls come from the whole dose curve; as a rule, active = well fitted cell-killing curve with a large enough effect; inconclusive = small, poorly fitted or top-dose-only effect, or effect the other way; inactive = no such curve, though single readings can be large or run the other way.
Would you mind answering with one of these outcomes? 1.0 = active, 0.0 = inactive

Example results:
compound: C#Cc1ccc(-c2ccccc2F)cc1
class_label: 0.0
//
compound: COC(=O)c1nc(Cl)c(Cl)nc1N
class_label: 1.0
//
compound: CC[C@]12C=CCN3CC[C@@]4(c5cc([C@@]6(C(=O)OC)C[C@H]7C[C@@H](C(C)(F)F)CN(Cc8c6[nH]c6ccccc86)C7)c(OC)cc5N(C)[C@H]4[C@@](O)(C(=O)OC)[C@@H]1OC(C)=O)[C@@H]32
class_label: 1.0

What did the test return for Nc1nc(N)c2nc(CNc3ccc(C(=O)NC(CCC(=O)O)C(=O)O)cc3)cnc2n1 (configuration not stated) ?
1.0

What did the test return for `CCOC(=O)c1cnn(-c2ccc(NC(=O)C(Cl)=C(Cl)Cl)cc2)c1C(F)(F)F` ?
1.0

What did the test return for `C[C@@]12C(=O)OC(=O)[C@]1(C)[C@H]1CC[C@@H]2O1` ?
1.0

What did the test return for `OC[C@H]1O[C@@H](O[C@H]2[C@H](O)[C@@H](CO)O[C@@H](OCc3ccccc3)[C@@H]2O[C@@H]2OC[C@](O)(CO)[C@H]2O)[C@H](O)[C@@H](O)[C@@H]1O` ?
0.0

What did the test return for `CC(C)(C)c1nc2c3cc[nH]c(=O)c3c3cc(F)ccc3c2[nH]1` ?
1.0

What did the test return for `Nc1nc(NC2CC2)cc(-c2cccc(Cl)c2Cl)n1` ?
1.0

* * *

- procedure_summary: Quantitative highthroughput screen to assess conditional lethalithy of P12 Ichikawa cells grown in Human Plasma-Like Medium with dialyzed fetal bovine serum (HPLM+ds) (AID 1963879); also: nearly all actives have a fitted effect of over 35% in size
- assay_conditions: ATP luminescence, 48 h; viability; series mostly up to 45.8 µM
Inconclusive results are not listed. Calls of active or inactive are those of the source. Calls come from the whole dose curve; as a rule, active = well fitted cell-killing curve with a large enough effect; inconclusive = small, poorly fitted or top-dose-only effect; inactive = flat fitted curve, though single readings scatter.
Would you mind answering with one of these outcomes? y (active), n (inactive)

What did the test return for `CCOC(=O)O[C@]1(C(=O)OCCl)CC[C@@H]2[C@H]3CCC4=CC(=O)C=C[C@]4(C)[C@@H]3[C@@H](O)C[C@@]21C` ?
n

* * *

- procedure_summary: Viability qHTS for spleen associated tyrosine kinase inhibitor (SYKi) drug resistant MV4-11 cells (AID 1963824); also: nearly all actives have a fitted effect of over 35% in size
- assay_conditions: SYKi-resistant MV4-11 viability, CellTiter-Glo, 72 h; series mostly up to 45 µM
Records with an inconclusive call do not appear. The source made the active and inactive calls. The call rests on the fitted dose curve; in most records, active means well fitted cell-killing curve with a large enough effect; inconclusive means small, poorly fitted or top-dose-only effect, or effect the other way; inactive means no such curve, though single readings can be large or run the other way.
Would you mind answering with one of these outcomes? 1 (yes) = active, 0 (no) = inactive

Example results:
molecule: COc1cc(/C=C/C(=O)OCC2OC(OC3(CO)OC(CO)C(O)C3O)C(O)C(O)C2O)ccc1O (stereo not given)
class_label: 0 (no)
--
molecule: CCN1CCC(n2cc(CNc3cc(Cl)c4ncc(C#N)c(Nc5ccc(F)c(Cl)c5)c4c3)nn2)CC1
class_label: 1 (yes)
--
molecule: C=C1CCC2C(C)(C)C(O)CCC2(C)C1CCC(C)CCO (stereo not given)
class_label: 1 (yes)
--
molecule: CC1CCN(c2cc(N3CCN(C)CC3)ccc2NC(=O)c2cc(C#N)c[nH]2)CC1
class_label: 1 (yes)

What did the test return for COC(=O)[C@@H](O)[C@H]1[C@@]2(C)CC3(O)[C@@H](C(=O)[C@H]2O)[C@]24O[C@]25CC(=O)O[C@@H](c2ccoc2)[C@]5(C)CCC4[C@]13C (stereo not given in full) ?
0 (no)

* * *

- procedure_summary: Viability qHTS for spleen associated tyrosine kinase inhibitor (SYKi) drug resistant MV4-11 cells (AID 1963824); also: nearly all actives have a fitted effect of over 35% in size
- assay_conditions: SYKi-resistant MV4-11 viability, CellTiter-Glo, 72 h; series mostly up to 45 µM
Results filed as inconclusive are left out. Activity calls are given as the source filed them. Calls come from the whole dose curve; as a rule, active = well fitted cell-killing curve with a large enough effect; inconclusive = small, poorly fitted or top-dose-only effect, or effect the other way; inactive = no such curve, though single readings can be large or run the other way.
Would you mind answering with one of these outcomes? 1 (active), -1 (inactive)

Example results:
compound: O=C(O)CC(CCc1ccccc1)OC1OC(CO)C(O)C(O)C1O (stereo unspecified)
class_label: -1

compound: C[C@H](c1ccc(F)cc1CCCC(=O)O)N(c1cc(F)ccc1F)S(=O)(=O)c1ccc(Cl)cc1
class_label: 1

compound: O=C(O)CCc1c(C(=O)O)[nH]c2cc(Cl)cc(Cl)c12
class_label: -1

compound: CC/C=C\CC1C(=O)CCC1CC(=O)OC (stereo unspecified)
class_label: -1

What did the test return for `CC(=O)CC(=O)Nc1ccc(Cl)c(C(F)(F)F)c1` ?
1

What did the test return for `CCCCOc1ccc(-c2cncc(C(=O)NCc3cccnc3N3CCOCC3)c2)cc1Cl` ?
1

* * *

- procedure_summary: Cellular viability qHTS for adrenocortical cancer (ACC) cell line NCI-H295R (AID 1963990); also: nearly all actives have a fitted effect of over 60% in size
- assay_conditions: CellTiter-Glo ATP luminescence, 48 h; series mostly up to 46.1 µM
Results filed as inconclusive are left out. Activity calls are given as the source filed them. Calls come from the whole dose curve; as a rule, active = well fitted cell-killing curve with a large enough effect; inconclusive = small, poorly fitted or top-dose-only effect; inactive = flat fitted curve, though single readings scatter.
Would you mind answering with one of these outcomes? active, inactive

Example results:
molecule: OCCOCCN1CCN(C2=Nc3ccccc3Sc3ccccc32)CC1
class_label: inactive
//
molecule: Cc1ccc(O)c(C(CCN(C(C)C)C(C)C)c2ccccc2)c1 (stereo not given)
class_label: inactive
//
molecule: C=C1C(=O)[C@@]23C(CC[C@@H]1[C@H]2O)[C@@]12CO[C@]3(O)[C@@H](O)[C@@H]1C(C)(C)CC[C@@H]2O (stereo not given in full)
class_label: active
//
molecule: CCCCCCCCCCCCCCCC(=O)O
class_label: inactive
//
molecule: CCCc1nc(C(C)(C)O)c(C(=O)O)n1Cc1ccc(-c2ccccc2-c2nn[nH]n2)cc1
class_label: inactive
//
molecule: COc1cccc2c1C(=O)c1c(O)c3c(c(O)c1C2=O)C[C@@](O)(/C(CO)=N/NC(=O)CCCCCN1C(=O)C=CC1=O)C[C@@H]3O[C@H]1C[C@H](N)[C@H](O)[C@H](C)O1
class_label: active
//
molecule: CN(C)CCOC(c1ccccc1)c1ccccc1
class_label: inactive
//
molecule: CCN1CCC[C@H]1CNC(=O)c1c(OC)ccc(Br)c1OC
class_label: inactive

What did the test return for CC1CCc2c(N3CCC(O)CC3)c(F)cc3c(=O)c(C(=O)O)cn1c23 (stereo not given) ?
inactive

What did the test return for `Cc1cccc(C)c1NC(=O)CC12CCCN1CCC2` ?
inactive
